Data origin: ChEMBL document CHEMBL5303304

Assign Growth Rate to each entry below.
Tested on: Fibroblast
Assay: Incucyte cell viability with human fibroblast; further: unitless GR value; below 1 slowed growth and below 0 cell loss
Type: toxicity, cell-based
Conditions: 12 h, 10 µM, compound concentration 10 uM, replicate number 2
In your answer, state the number alone without any accompanying words.

Consider the compound `C[C@@H](CN1CC[C@@]2(C)c3cccc(O)c3C[C@@H]1C2(C)C)OCc1ccccc1.Cl` and give its measured Growth Rate.
0.93

Consider the compound `Clc1cccc(-n2nnnc2NCc2ccccc2Oc2ccccn2)c1Cl` and give its measured Growth Rate.
0.89

Consider the compound Cn1nccc1-c1ccc(Sc2cccc(C3(C(N)=O)CCOCC3)c2)cc1 [PF-4191834] and give its measured Growth Rate.
0.52

Consider the compound `CNc1ncc2cc(-c3ccc(-c4cccc(C)n4)cc3Cl)c(=O)n(C[C@H]3OC[C@H](N)CO3)c2n1` and give its measured Growth Rate.
0.19

Consider the compound `NC1(c2ccc(-c3nc4c(O)ccnn4c3-c3ccccc3)cc2)CCC1` and give its measured Growth Rate.
0.9

Consider the compound `Cc1c(C(=O)Nc2cccc(C(F)(F)F)c2)cc(-c2ccccc2)n1CCCN1CCOCC1.Cl` and give its measured Growth Rate.
0.65

Consider the compound `COc1cc(Cl)c(C(=O)N[C@@H](CN[C@H]2CC[C@@H](N)CC2)Cc2ccc(C#N)cc2)cc1-c1ccc(CN[C@H](C)c2ccc(C)cc2)o1` and give its measured Growth Rate.
-0.82

Consider the compound CNC(=O)c1cccc(-c2ccc3c(N4CCOC[C@@H]4C)nc(N4CCOC[C@@H]4C)nc3n2)c1 [VISTUSERTIB] and give its measured Growth Rate.
0.26

Consider the compound `O=C(NCCN1CCOCC1)c1ccc2nn(CCOc3ccc(Cl)cc3)cc2c1` and give its measured Growth Rate.
0.78

----------
Assign Growth Rate to each entry below.
System: HEK-293T
Assay: Incucyte cell viability with HEK293T; further: unitless GR value; below 1 slowed growth and below 0 cell loss
Assay type: toxicity, cell-based
Conditions: human, 6 h, 10 µM, compound concentration 10 uM, replicate number 1
In your answer, state the number alone without any accompanying words.

Consider the compound `Cn1c(SCc2ccc(C(C)(C)C)cc2)nc(N)cc1=O` and give its measured Growth Rate.
-0.1

Consider the compound `O=C(Nc1cc(-c2cn[nH]c2)ccc1N1CCOCC1)c1ccc(-c2ccc3ncccc3c2)o1` and give its measured Growth Rate.
-0.44

Consider the compound C[C@H](c1ccnc(Nc2nc3ccc(-c4cc(N(C)C)ncn4)cc3[nH]2)c1)N1CCN(C(=O)CC(F)(F)F)CC1 [BAY-985] and give its measured Growth Rate.
0.4

Consider the compound `COc1cccc(Cn2cc(C(=O)Nc3ccc(C)c(S(=O)(=O)N4CCOCC4)c3)c(-c3ccc(C)cc3)n2)c1` and give its measured Growth Rate.
0.76

Consider the compound `CCc1cc2c(cc1-c1cccc(S(=O)(=O)F)c1)C(C)(C)c1[nH]c3cc(C#N)ccc3c1C2=O` and give its measured Growth Rate.
-0.16

Consider the compound `COc1c(NC(=O)c2cc3cccc(Oc4ccnc(C(=O)N5CCN(C)CC5)c4)c3n2C)cc(C(C)(C)C)cc1NS(C)(=O)=O` and give its measured Growth Rate.
0.93

Consider the compound `CCS(=O)(=O)Nc1cccc(Oc2cncc(Nc3ccc(I)cc3F)c2C(N)=O)c1` and give its measured Growth Rate.
0.77

Consider the compound `CC[C@]1(C)C[C@@H](OC(=O)CSc2nnc(N)[nH]2)[C@@]2(C)[C@H](C)CC[C@@]3(CCC(=O)[C@H]32)[C@@H](C)[C@@H]1O` and give its measured Growth Rate.
0.09
